# ASSAY NOTES: Cytotoxicity by neutral red dye uptake assay in the HCV replicon cultures
# Type: cell-based
# RECORDED CONDITIONS: human; 2-fold depression of neutral red dye uptake relative to untreated cultures; daily treatment for three days, assessed at 72 hours
PARAMETER: CC50 at 72 h (µM)
# unit: µM | format: bare number

Please report the recorded CC50 at 72 h for CCOC(=O)C(COC(C)=O)(COP(=O)(OC[C@H]1O[C@@H](n2cnc(C(N)=O)n2)C(O)C1O)OCC(COC(C)=O)(C(=O)OCC)C(=O)OCC)C(=O)OCC (some centres unmarked) .
9.7

###

Here, each record is paired with measured CC50 data.
# Test system: AVA5 cell line
# ASSAY NOTES: Cytotoxicity by neutral red dye uptake assay in the HCV replicon cultures
# Format: cell-based
# RECORDED CONDITIONS: 2-fold depression of neutral red dye uptake relative to untreated cultures; daily treatment for three days, assessed at 72 hours

COC(=O)[C@H](C)NP(=O)(OC[C@H]1O[C@@H](n2ccc(N)nc2=O)[C@H](OC)[C@@H]1O)Oc1ccccc1 (stereo partly drawn) : > 100 µM
C[C@@]1(O)[C@H](O)[C@@H](CO)O[C@H]1n1ccc(N)nc1=O [Compound 12a, 2′-β-methylcytidine, reference compound] : > 100 µM

Next molecule, please.
I have this molecule here, CCOC(=O)C(COC(C)=O)(COP(=O)(N[C@@H](C)C(=O)OC)OC[C@H]1O[C@@H](n2cnc(C(N)=O)n2)[C@H](O)[C@@H]1O)C(=O)OCC (stereo partly drawn) , and I need its recorded CC50.
> 100 µM

The values you see were collected from patent US20100240604A1.
